test-target: CYP3A4 (BDGentest) (Homo sapiens, UniProt P08684)
Construct: purchased BDGentest
Sequence (P08684 whole entry): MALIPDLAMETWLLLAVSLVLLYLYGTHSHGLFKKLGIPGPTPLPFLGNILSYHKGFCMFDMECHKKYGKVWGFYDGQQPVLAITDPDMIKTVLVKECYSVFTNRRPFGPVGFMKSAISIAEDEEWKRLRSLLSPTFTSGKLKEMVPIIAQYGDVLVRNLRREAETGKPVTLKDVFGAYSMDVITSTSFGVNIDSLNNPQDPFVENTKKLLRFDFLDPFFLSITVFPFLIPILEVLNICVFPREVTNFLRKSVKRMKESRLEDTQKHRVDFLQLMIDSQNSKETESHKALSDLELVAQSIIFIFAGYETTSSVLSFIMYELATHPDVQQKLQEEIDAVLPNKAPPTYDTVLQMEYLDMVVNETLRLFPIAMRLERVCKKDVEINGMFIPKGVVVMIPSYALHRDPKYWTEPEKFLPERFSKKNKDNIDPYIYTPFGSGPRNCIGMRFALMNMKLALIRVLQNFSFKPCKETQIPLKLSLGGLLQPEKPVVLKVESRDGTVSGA
experiment-description: New CYP3A4 bioassay with dibenzylfluorescein (DBF) substrate (Foster et al. 2011)
Format: biochemical
experimental-setup: DBF substrate 1 μM, human microsomes; read-out: IC50 (converted)
So I've got a bunch of compounds here, and I need their IC50 values.
One number for each entry, in nM.

Worked set:
Q) # input compound: `COc1c(/C=C/CC(O)(c2ccccc2)c2ccccc2)cc2c(c1OC)OCO2` ; wanted: its IC50
A) 1580

Q) Next up: `COc1c(CCCOC(=O)c2ccc3c(c2)OCO3)cc2c(c1OC)OCO2`
A) 2630

Q) For `COc1c(CCCO)cc2c(c1OC)OCO2` then?
A) 16600

Q) How about this compound: COc1c(CCCOC(=O)C(c2ccccc2)c2ccccc2)cc2c(c1OC)OCO2 [drawing 58]
A) 434

Q) # iterate: COc1ccc(OC)c(COc2cc3c(cc2CCCOC(=O)C(c2ccccc2)c2ccccc2)OCO3)c1 [drawing 79]
A) 230

// input: 4 compounds below; output: IC50 for each
1. C=CCc1cc2c(cc1OCc1cc(OC)ccc1OC)OCO2
2. COc1c(CCCOCc2ccccc2)cc2c(c1OC)OCO2
3. OCCCc1cc2c(cc1OCc1ccccc1)OCO2
4. COc1c(CCCC(O)(c2ccccc2)c2ccccc2)cc2c(c1OC)OCO2

A)
[2150, 6660, 3000, 1060]

###

test-target: CYP3A4 (BDGentest) (Homo sapiens)
Construct: purchased BDGentest
experiment-description: New CYP3A4 bioassay with dibenzylfluorescein (DBF) substrate (Foster et al. 2011)
Format: biochemical
experimental-setup: new CYP3A4 bioassay; inhibition relative to dillapiol
parameter: % Activity relative to dillapiol = 1
Numbers only.

Below, 8 compounds whose answers are already recorded.
Q) Give its % Activity relative to dillapiol = 1 value. Item: `COc1c(CCCOC(=O)CCCc2ccccc2)cc2c(c1OC)OCO2`
A) 2.22

Q) Next: COc1c(/C=C/CC(O)(c2ccccc2)c2ccccc2)cc2c(c1OC)OCO2 [Compound 1]
A) 5.8

Q) Also `O=C(CCCC/C=C/c1ccc2c(c1)OCO2)OCCCO` , if possible.
A) 2.2

Q) And `C=CCc1cc2c(cc1OCc1cc(OC)ccc1OC)OCO2` ?
A) 4.27

Q) What about `COc1c(CCCOC(=O)C(C)(C)C)cc2c(c1OC)OCO2` ?
A) 3.3

Q) // same read-out, input: `COc1c(CCCOC(=O)/C=C/c2ccccc2)cc2c(c1OC)OCO2`
A) 3.86

Q) Repeat for the following compound: `COc1cc2c(cc1CCCO)OCO2`
A) 2.25

Q) What about `COc1c(CCCCO)cc2c(c1OC)OCO2` ?
A) 0.8

Each of the following entries comes with a recorded value; kindly state % Activity relative to dillapiol = 1 for each.
1. COc1ccc(OC)c(COc2cc3c(cc2CCCOC(=O)c2ccccc2)OCO3)c1 [drawing 60]
2. O=C(OCCCc1cc2c(cc1OCc1ccccc1)OCO2)c1ccccc1
3. COc1c(C/C=C/Cc2cc3c(c(OC)c2OC)OCO3)cc2c(c1OC)OCO2 [Compound 56]
4. COc1c(CCCOC(=O)C2CCCCC2)cc2c(c1OC)OCO2
5. COc1c(C/C=C/Cc2cc3c(c(OC)c2OC)OCO3)cc2c(c1OC)OCO2 [drawing 66]

A)
[25.5, 2.3, 5.1, 4.83, 6.3]

Quick one: give me % Activity relative to dillapiol = 1 for each item below, same order please.
1. O=C(OCCCc1cc2c(cc1OCc1ccccc1)OCO2)C(c1ccccc1)c1ccccc1 [drawing 80]
2. C/C=C(\C)C(=O)OCCCc1cc2c(c(OC)c1OC)OCO2
3. COc1c(CCCOC(=O)c2ccc(Cl)cc2Cl)cc2c(c1OC)OCO2
4. COc1c(CCCOC(C)=O)cc2c(c1OC)OCO2

A)
[14, 5.9, 6.56, 1]

Q) Please give the measured % Activity relative to dillapiol = 1 for this compound: `COc1c(CCCOCc2ccc(F)cc2)cc2c(c1OC)OCO2`
A) 0.89

###

test-target: CYP3A4 (BDGentest) (Homo sapiens, UniProt P08684)
Construct: purchased BDGentest
experiment-description: New CYP3A4 bioassay with dibenzylfluorescein (DBF) substrate (Foster et al. 2011)
Assay type: biochemical
experimental-setup: DBF substrate 1 μM, human microsomes; read-out: IC50 (converted)
parameter: IC50

Items follow; give IC50 for each.
1. COc1c(CCCOC(=O)c2ccc([N+](=O)[O-])cc2)cc2c(c1OC)OCO2
2. COc1c(CCCOC(=O)CCCc2ccccc2)cc2c(c1OC)OCO2
3. COc1c(CCC(C)O)cc2c(c1OC)OCO2 (centres unmarked)
4. C/C=C(\C)C(=O)OCCCc1cc2c(c(OC)c1OC)OCO2
5. COc1c(CCCOC(=O)C2CCCCC2)cc2c(c1OC)OCO2
6. COc1c(CC/C=C/C(=O)NC(C)C)cc2c(c1OC)OCO2
7. COc1c(CCCOC(=O)c2ccc(Cl)cc2)cc2c(c1OC)OCO2

A)
["> 13 µM", "4.14 µM", "> 20 µM", "1.55 µM", "1.9 µM", "2.1 µM", "1.56 µM"]

List the reported IC50 of each compound below.
1. COc1c(CCCOC(=O)/C=C/c2ccccc2)cc2c(c1OC)OCO2
2. CCCCCC(=O)OCCCc1cc2c(c(OC)c1OC)OCO2
3. COc1c(CCCCO)cc2c(c1OC)OCO2
4. COc1c(CCCOCc2ccc(F)cc2)cc2c(c1OC)OCO2
5. COc1c(CCCOC(=O)c2ccccc2Cl)cc2c(c1OC)OCO2
6. OCCCCc1ccc2c(c1)OCO2
7. O=C(O)CCCC/C=C/c1ccc2c(c1)OCO2

A)
["2.38 µM", "3.25 µM", "11.6 µM", "10.3 µM", "5.27 µM", "> 26 µM", "> 20.1 µM"]
